Hello, the source for this data is patent US10570099B2, in case you need it.

Assay: Dog PK Study 1 (cross-over, fasted)
Format: in vivo, beagle dogs
Conditions: male, beagle, po; plasma compound 1, fasted dogs, capsule orally 28.5 mg/kg; mean, dog #3 excluded
measurement-kind: Cmax (ng/mL)
The reply should be a number in ng/mL, with the unit left off.

# Cmax lookup, item C=CC(=O)Nc1cccc(Nc2nc(Nc3ccc(N4CCN(C(C)=O)CC4)cc3OC)ncc2C(F)(F)F)c1 [Compound 1 (Free Base)]
120

----------
Assay: Dog PK Study 2 (gastric pH adjustment, food effect)
Type: in vivo, beagle dogs
Conditions: male, beagle, dog, plasma, po, 30 mg/kg, plasma compound 1, dogs (n = 3), capsule orally 30 mg/kg, Pentagastrin, fed; mean (% CV); read-out: Cmax
Where a name gives a salt, the structure may show the parent alone.
measurement-kind: Cmax (ng/mL)
A number alone suffices; assume ng/mL.

What measured Cmax goes with C=CC(=O)Nc1cccc(Nc2nc(Nc3ccc(N4CCN(C(C)=O)CC4)cc3OC)ncc2C(F)(F)F)c1 [Compound 2 (Form I Hydrobromide)] ?
3970

----------
Experiment: Dog PK Study 2 (gastric pH adjustment, food effect)
Type: in vivo, beagle dogs
Settings: male, beagle, dog, plasma, po, 30 mg/kg, plasma compound 1, dogs (n = 3), capsule orally 30 mg/kg, Pentagastrin, fasted; mean (% CV); read-out: Cmax
Protocol: Compound 1 free base and compound 2, as the Form I monohydrobromide (HBr) salt, were evaluated in a cross-over dog PK study in which male dogs were pre-treated with either pentagastrin (to decrease gastric pH) or famotidine (to increase gastric pH) prior to oral dosing to control gastric pH. In addition, the effect of food on the systemic exposure to compound 1 was also evaluated in dogs receiving Form I HBr with pentagastrin pre-treatment. […]
measurement-kind: Cmax (ng/mL)
Quick note: give the figure in ng/mL, leave out the unit.

Data request, read-out Cmax, for C=CC(=O)Nc1cccc(Nc2nc(Nc3ccc(N4CCN(C(C)=O)CC4)cc3OC)ncc2C(F)(F)F)c1 [Compound 1 (Free Base)]
1820

----------
Experiment: Dog PK Study 1 (cross-over, fasted)
Format: in vivo, beagle dogs
Details: male, beagle, po; plasma compound 1, fasted dogs, capsule orally 28.5 mg/kg; mean, dog #3 excluded
measurement-kind: half-life (h)
The reply should contain only the number, in h.

Can you look up the measured half-life of C=CC(=O)Nc1cccc(Nc2nc(Nc3ccc(N4CCN(C(C)=O)CC4)cc3OC)ncc2C(F)(F)F)c1 [Compound 1 (Free Base)] for me?
2.1

----------
Experiment: 1 week stability of primary screen salts at 40° C./75% RH and 80° C. (open vials, XRPD)
Format: physicochemical
measurement-kind: Stability 80° C. (open conditions)

1. C=CC(=O)Nc1cccc(Nc2nc(Nc3ccc(N4CCN(C(C)=O)CC4)cc3OC)ncc2C(F)(F)F)c1.O=S(=O)(O)c1ccccc1 [Besylate (1 equiv.) Form I]
No form change,
2. C=CC(=O)Nc1cccc(Nc2nc(Nc3ccc(N4CCN(C(C)=O)CC4)cc3OC)ncc2C(F)(F)F)c1.O=C(O)C(=O)O [Oxalate Form I]
No form change,
3. C=CC(=O)Nc1cccc(Nc2nc(Nc3ccc(N4CCN(C(C)=O)CC4)cc3OC)ncc2C(F)(F)F)c1.Cl [Hydrochloride (1 equiv.) Form I]
No form change,

----------
Experiment: Dog PK Study 1 (cross-over, fasted)
Format: in vivo, beagle dogs
Settings: male, beagle, po; plasma compound 1, fasted dogs, capsule orally 28.5 mg/kg; median, dog #3 excluded
measurement-kind: Tmax (h)
Give just the number in h; leave the unit off.

Need Tmax of C=CC(=O)Nc1cccc(Nc2nc(Nc3ccc(N4CCN(C(C)=O)CC4)cc3OC)ncc2C(F)(F)F)c1 [Compound 1 (Free Base)] , thanks.
1

----------
Experiment: Dog PK Study 1 (cross-over, fasted)
Assay type: in vivo, beagle dogs
Conditions: male, beagle, dog, po; plasma compound 1, fasted dogs (n = 3), capsule orally 24.5 mg/kg; mean (% CV)
Counter-ions that a name gives are not always drawn.
measurement-kind: Cmax (ng/mL)
Report as a plain number; the unit ng/mL is understood.

Quick check: Cmax of C=CC(=O)Nc1cccc(Nc2nc(Nc3ccc(N4CCN(C(C)=O)CC4)cc3OC)ncc2C(F)(F)F)c1 [Compound 2 (Form I Hydrobromide)] ?
1420

----------
Test: 1 week stability of primary screen salts at 40° C./75% RH and 80° C. (open vials, XRPD)
Type: physicochemical
measurement-kind: Stability 80° C. (open conditions)

1) C=CC(=O)Nc1cccc(Nc2nc(Nc3ccc(N4CCN(C(C)=O)CC4)cc3OC)ncc2C(F)(F)F)c1.CC1(C)C2CCC1(CS(=O)(=O)O)C(=O)C2 [Camphor-10-sulfonic acid (1 eq.) Form I]
No form change,
2) C=CC(=O)Nc1cccc(Nc2nc(Nc3ccc(N4CCN(C(C)=O)CC4)cc3OC)ncc2C(F)(F)F)c1.Cl.Cl [Hydrochloride (2 equiv.) Form I]
No form change,

----------
Assay: Dog PK Study 1 (cross-over, fasted)
Format: in vivo, beagle dogs
Details: male, beagle, dog, po; plasma compound 1, fasted dogs (n = 3), capsule orally 24.5 mg/kg; mean
Where a name gives a salt, the structure may show the parent alone.
measurement-kind: half-life (h)
Give a bare numeral; the unit h is implied.

State the recorded half-life for this entry: C=CC(=O)Nc1cccc(Nc2nc(Nc3ccc(N4CCN(C(C)=O)CC4)cc3OC)ncc2C(F)(F)F)c1 [Compound 2 (Form I Hydrobromide)]
2.4

----------
Experiment: 1 week stability of primary screen salts at 40° C./75% RH and 80° C. (open vials, XRPD)
Type: physicochemical
measurement-kind: Stability 80° C. (open conditions)

1) C=CC(=O)Nc1cccc(Nc2nc(Nc3ccc(N4CCN(C(C)=O)CC4)cc3OC)ncc2C(F)(F)F)c1.Cc1ccc(S(=O)(=O)O)cc1 [Tosylate (1 equiv.) Form I]
No form change,
2) C=CC(=O)Nc1cccc(Nc2nc(Nc3ccc(N4CCN(C(C)=O)CC4)cc3OC)ncc2C(F)(F)F)c1.O=C(O)/C=C\C(=O)O [Maleate Form I]
No form change,

----------
Assay: Dog PK Study 1 (cross-over, fasted)
Assay type: in vivo, beagle dogs
Conditions: male, beagle, dog, po; plasma compound 1, fasted dogs (n = 3), capsule orally 24.5 mg/kg; mean (% CV); read-out: AUC0-24
Structures can show the parent of a compound that is named as a salt.
measurement-kind: AUC(0-t) (ng·h/mL)
Give the quantity in ng·h/mL, number only.

Quick one: AUC(0-t) of C=CC(=O)Nc1cccc(Nc2nc(Nc3ccc(N4CCN(C(C)=O)CC4)cc3OC)ncc2C(F)(F)F)c1 [Compound 2 (Form I Hydrobromide)] ?
5260

----------
Experiment: 1 week stability of primary screen salts at 40° C./75% RH and 80° C. (open vials, XRPD)
Format: physicochemical
measurement-kind: Stability 40° C./75% RH (open conditions)

Answered examples (5):
1. C=CC(=O)Nc1cccc(Nc2nc(Nc3ccc(N4CCN(C(C)=O)CC4)cc3OC)ncc2C(F)(F)F)c1.Cc1ccc(S(=O)(=O)O)cc1.Cc1ccc(S(=O)(=O)O)cc1 [Tosylate (2 equiv.) Form II]
Gum formed
2. C=CC(=O)Nc1cccc(Nc2nc(Nc3ccc(N4CCN(C(C)=O)CC4)cc3OC)ncc2C(F)(F)F)c1.CS(=O)(=O)O.CS(=O)(=O)O [Mesylate Form I]
Gum formed
3. C=CC(=O)Nc1cccc(Nc2nc(Nc3ccc(N4CCN(C(C)=O)CC4)cc3OC)ncc2C(F)(F)F)c1.Cl.Cl [Hydrochloride (2 equiv.) Form I]
No form change,
4. C=CC(=O)Nc1cccc(Nc2nc(Nc3ccc(N4CCN(C(C)=O)CC4)cc3OC)ncc2C(F)(F)F)c1.O=C(O)c1c(O)cc(O)cc1O [2,4,6-Trihydroxybenzoate Form I]
No form change,
5. C=CC(=O)Nc1cccc(Nc2nc(Nc3ccc(N4CCN(C(C)=O)CC4)cc3OC)ncc2C(F)(F)F)c1.Cc1ccc(S(=O)(=O)O)cc1 [Tosylate (1 equiv.) Form I]
No form change,

Form field: reported Stability 40° C./75% RH (open conditions) of C=CC(=O)Nc1cccc(Nc2nc(Nc3ccc(N4CCN(C(C)=O)CC4)cc3OC)ncc2C(F)(F)F)c1.O=S(=O)(O)c1ccc2ccccc2c1.O=S(=O)(O)c1ccc2ccccc2c1 [Naphthalene-2-sulfonic acid (2 eq.) Form II]
No form change,

Could you share which Stability 40° C./75% RH (open conditions) value was measured for C=CC(=O)Nc1cccc(Nc2nc(Nc3ccc(N4CCN(C(C)=O)CC4)cc3OC)ncc2C(F)(F)F)c1.O=C(O)C(=O)O [Oxalate Form II] ?
No form change,

Given the compound "C=CC(=O)Nc1cccc(Nc2nc(Nc3ccc(N4CCN(C(C)=O)CC4)cc3OC)ncc2C(F)(F)F)c1.O=S(=O)(O)c1cccc2c(S(=O)(=O)O)cccc12" , what is its reported Stability 40° C./75% RH (open conditions)?
No form change,

Quick check: Stability 40° C./75% RH (open conditions) of C=CC(=O)Nc1cccc(Nc2nc(Nc3ccc(N4CCN(C(C)=O)CC4)cc3OC)ncc2C(F)(F)F)c1.Cc1ccc(S(=O)(=O)O)cc1.Cc1ccc(S(=O)(=O)O)cc1 [Tosylate (2 equiv.) Form I] ?
No form change,

Given the entry C=CC(=O)Nc1cccc(Nc2nc(Nc3ccc(N4CCN(C(C)=O)CC4)cc3OC)ncc2C(F)(F)F)c1.O=C(O)C(=O)O [Oxalate Form I] , report its measured Stability 40° C./75% RH (open conditions).
No form change,

Form field: reported Stability 40° C./75% RH (open conditions) of C=CC(=O)Nc1cccc(Nc2nc(Nc3ccc(N4CCN(C(C)=O)CC4)cc3OC)ncc2C(F)(F)F)c1.Cc1ccc(S(=O)(=O)O)cc1 [Tosylate (1 equiv.) Form II]
Gum formed

Query (compound): C=CC(=O)Nc1cccc(Nc2nc(Nc3ccc(N4CCN(C(C)=O)CC4)cc3OC)ncc2C(F)(F)F)c1.O=S(=O)(O)c1ccccc1 [Besylate (1 equiv.) Form I] ; field requested: Stability 40° C./75% RH (open conditions)
No form change,
